Catalogue of pEC50 values
system: GHSR1a (Homo sapiens, UniProt Q92847)
Sequence (Q92847 whole entry): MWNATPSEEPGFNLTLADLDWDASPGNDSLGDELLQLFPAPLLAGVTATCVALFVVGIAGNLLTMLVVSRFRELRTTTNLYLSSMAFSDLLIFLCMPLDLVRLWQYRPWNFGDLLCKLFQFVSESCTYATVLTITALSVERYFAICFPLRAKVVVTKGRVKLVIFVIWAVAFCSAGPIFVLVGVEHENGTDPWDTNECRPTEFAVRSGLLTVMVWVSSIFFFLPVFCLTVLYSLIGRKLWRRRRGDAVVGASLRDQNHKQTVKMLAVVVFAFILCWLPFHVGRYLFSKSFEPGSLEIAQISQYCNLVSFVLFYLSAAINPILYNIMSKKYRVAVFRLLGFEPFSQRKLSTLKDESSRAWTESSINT
test name: Calcium FLIPR assay, GHSR-1a agonism
test conditions: HEK293/GHSR1a cells
pEC50: −log10 of the molar value.

Would you please look over these solved cases?
>  <compound>
CC(NC(=O)N(C)C1CCN(C)CC1)c1ccc(-c2cncc(C(F)(F)F)n2)c(Cl)c1Cl (centres unmarked) [Compound H0910]

>  <system>
GHSR1a (Homo sapiens, UniProt Q92847)

>  <pEC50>
7.72

$$$$
>  <compound>
CCC(NC(=O)N(C)C1CCN(C)C1)c1ccc(-c2cncc(F)n2)c(Cl)c1Cl (centres unmarked) [Compound H0864]

>  <system>
GHSR1a (Homo sapiens, UniProt Q92847)

>  <pEC50>
< 4.52

$$$$
>  <compound>
CC(NC(=O)N(C)C1CCN(C)CC1)c1ccc(-c2ccoc2)c2ccccc12 (centres unmarked) [Compound H0598]

>  <system>
GHSR1a (Homo sapiens, UniProt Q92847)

>  <pEC50>
6.57

$$$$
>  <compound>
C[C@H](NC(=O)N(C)C1CCN(C)C1)c1ccc(-c2cnccn2)c(Cl)c1Cl (mixture of isomers) [Compound H0837]

>  <system>
GHSR1a (Homo sapiens, UniProt Q92847)

>  <pEC50>
< 4.52

$$$$
>  <compound>
CC(NC(=O)N(C)C1CCN(C)CC1)c1ccc(-c2ccccn2)c(Cl)c1Cl (centres unmarked) [Compound H0650]

>  <system>
GHSR1a (Homo sapiens, UniProt Q92847)

>  <pEC50>
8.05

$$$$
>  <compound>
CC(NC(=O)N(C)C1CCN(C)CC1)c1ccc(NC(=O)Nc2cccs2)c(Cl)c1Cl (centres unmarked) [Compound H0784]

>  <system>
GHSR1a (Homo sapiens, UniProt Q92847)

>  <pEC50>
< 4.52

$$$$
>  <compound>
COc1cc(OC)cc(-c2ccc(C(C)NC(=O)N(C)C3CCN(C)CC3)c(Cl)c2Cl)c1 (centres unmarked) [Compound H0611]

>  <system>
GHSR1a (Homo sapiens, UniProt Q92847)

>  <pEC50>
< 4.52

$$$$

Please indicate pEC50 recorded for CC(NC(=O)N(C)C1CCN(C)CC1)c1ccc(-c2cccc(C(N)=O)c2)c(Cl)c1Cl (centres unmarked) [Compound H0612]
< 4.52

The measurements presented in this section are drawn from patent US9546157B2.
